Ref: ChEMBL document CHEMBL1142267

Protein target, amino acids: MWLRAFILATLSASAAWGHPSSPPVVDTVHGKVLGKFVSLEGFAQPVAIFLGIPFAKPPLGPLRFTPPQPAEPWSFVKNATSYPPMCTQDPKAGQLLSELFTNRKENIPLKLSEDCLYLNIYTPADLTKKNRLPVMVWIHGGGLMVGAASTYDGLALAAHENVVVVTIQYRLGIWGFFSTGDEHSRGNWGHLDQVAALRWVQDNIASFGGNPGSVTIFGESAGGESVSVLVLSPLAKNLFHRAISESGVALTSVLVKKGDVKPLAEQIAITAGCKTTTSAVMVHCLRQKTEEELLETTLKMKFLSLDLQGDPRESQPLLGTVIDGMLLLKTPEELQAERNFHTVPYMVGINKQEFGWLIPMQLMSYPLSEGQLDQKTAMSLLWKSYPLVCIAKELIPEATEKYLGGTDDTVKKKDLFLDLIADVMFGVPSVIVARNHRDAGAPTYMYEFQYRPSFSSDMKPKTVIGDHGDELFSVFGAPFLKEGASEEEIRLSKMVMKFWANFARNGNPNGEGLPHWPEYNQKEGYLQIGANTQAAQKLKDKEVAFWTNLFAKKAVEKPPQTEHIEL
Parameter: IC50 (µM)
A number alone suffices; assume µM.

Supply recorded IC50 for O=C(O)c1cnc(C(=O)CCc2ccc(COc3ccccc3)cc2)o1 here. 37

Supply recorded IC50 for O=C(O)c1cccc(-c2cnc(C(=O)CCc3ccc(COc4ccccc4)cc3)o2)n1 here. 26

Supply recorded IC50 for O=C(O)c1cnc(C(=O)CCc2ccc(Oc3ccccc3)cc2)o1 here. 2.4

Supply recorded IC50 for N#Cc1cnc(C(=O)CCc2ccc(Oc3ccccc3)cc2)o1 here. 0.016

Supply recorded IC50 for N#Cc1cnc(C(=O)CCc2ccc(-c3ccccc3)cc2)o1 here. 0.026
